Below: a set of entries, each annotated with reported pIC50.
molecular target: Zap-70 (Homo sapiens); construct: Kinases are expressed as either kinase domains or full length constructs; made in house; experiment: Kinase inhibition assay (33P transfer), Zap-70; assay type: biochemical; conditions: Table 3, class symbols; read-out: Zap-1
Sequence (P43403 whole entry, species assumed, the tested form may be a part): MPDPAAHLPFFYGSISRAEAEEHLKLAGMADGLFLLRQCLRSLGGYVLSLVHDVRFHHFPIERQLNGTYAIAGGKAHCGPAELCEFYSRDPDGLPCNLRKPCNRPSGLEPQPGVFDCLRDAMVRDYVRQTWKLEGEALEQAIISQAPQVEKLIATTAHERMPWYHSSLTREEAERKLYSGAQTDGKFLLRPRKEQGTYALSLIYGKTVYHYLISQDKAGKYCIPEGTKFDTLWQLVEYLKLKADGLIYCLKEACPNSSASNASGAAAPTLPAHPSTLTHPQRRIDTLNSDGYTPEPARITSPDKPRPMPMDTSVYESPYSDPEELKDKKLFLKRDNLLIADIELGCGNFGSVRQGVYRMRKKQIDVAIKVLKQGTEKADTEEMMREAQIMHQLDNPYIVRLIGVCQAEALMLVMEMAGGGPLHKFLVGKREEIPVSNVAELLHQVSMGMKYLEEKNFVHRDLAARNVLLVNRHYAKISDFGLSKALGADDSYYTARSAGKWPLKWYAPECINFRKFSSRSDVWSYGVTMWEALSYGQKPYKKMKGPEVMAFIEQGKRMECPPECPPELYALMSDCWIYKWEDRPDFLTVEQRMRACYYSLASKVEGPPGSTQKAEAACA
pIC50: −log10 of the molar value.

Some entries whose results are on file:
# Smiles, Target Of Assay, Value
measured = [
    ("COc1ccc(Nc2ncnc(Nc3ccc(N4CCCCC4)cc3)n2)cc1OC", "Zap-70 (Homo sapiens)", "< 4.96"),
    ("c1ccc(-c2cc(Nc3ncnc(Nc4cccc(-c5cnco5)c4)n3)[nH]n2)cc1", "Zap-70 (Homo sapiens)", "< 4.94"),
]

Prompt line: Notebook entry, Zap-70 (Homo sapiens) assay: pIC50 of `FC(F)(F)Sc1cccc(Nc2ncnc(Nc3cc(-c4ccco4)[nH]n3)n2)c1` = ?
Response line: 5.24 to 6.02

Prompt line: Given the entry `COC(=O)c1ccc(-c2cc(Nc3ncnc(Nc4cccc(CCC(=O)O)c4)n3)[nH]n2)cc1` , what pIC50 was observed with Zap-70 (Homo sapiens)?
Response line: 5.28 to 6.06

Taken from patent US7074789B2.
